system_under_test: CTX-M-9 β-lactamase (Escherichia coli, UniProt Q9L5C8)
Sequence (Q9L5C8 29-291): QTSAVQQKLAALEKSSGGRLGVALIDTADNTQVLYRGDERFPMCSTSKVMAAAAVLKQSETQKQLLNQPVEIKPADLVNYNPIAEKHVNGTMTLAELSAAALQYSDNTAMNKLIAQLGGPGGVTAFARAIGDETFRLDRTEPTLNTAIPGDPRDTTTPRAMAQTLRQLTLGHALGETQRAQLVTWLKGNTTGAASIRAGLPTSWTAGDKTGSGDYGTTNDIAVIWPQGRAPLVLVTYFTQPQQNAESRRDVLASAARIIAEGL
assay_details: biochemical
Type: biochemical
test_parameters: read-out: IC50 (Estimated from single concentration measurement)
parameter: potency estimated from few doses (µM)
One number for each entry, in µM.

Previously resolved entries follow.
input_smiles: O=S(=O)(NCB(O)O)c1ccc(-c2nnn[nH]2)cc1
unit_string: µM
potency estimated from few doses: 6
//
input_smiles: O=S(=O)(NCB(O)O)c1ccc(-c2nn[nH]n2)c(Cl)c1
unit_string: µM
potency estimated from few doses: 7

Parameter requested: potency estimated from few doses. Apply to each item below.
1. O=S(=O)(NCB(O)O)c1ccc(-c2nn[nH]n2)cc1Cl
2. O=S(=O)(NCB(O)O)c1ccc(-c2nnn[nH]2)cc1C(F)(F)F
3. O=S(=O)(NCB(O)O)c1ccc(-c2nn[nH]n2)nc1
4. O=C(O)c1cccc(CS(=O)(=O)NCB(O)O)c1

1. 4
2. 5
3. 8
4. 0.162

----------
system_under_test: α-chymotrypsin (bovine pancreatic) (Bos taurus)
Construct: purchased Sigma-Aldrich
assay_details: α-Chymotrypsin inhibition
Type: biochemical
test_parameters: read-out: IC50
parameter: IC50

Let me know recorded IC50 for O=C(O)c1ccc(CS(=O)(=O)NCB(O)O)cc1 , thanks.
> 500 µM

----------
system_under_test: α-chymotrypsin (bovine pancreatic) (Bos taurus)
Construct: purchased Sigma-Aldrich
assay_details: α-Chymotrypsin inhibition
Format: biochemical
Method: α-Chymotrypsin assays were performed in 50 mM Tris buffer pH 7.5 with 0.01% Triton-X. Inhibitor and 0.001 mg/mL enzyme were incubated at their final concentration for 10 min before the reaction was initiated by the addition of 200 μM N-succinyl-Ala-Ala-Pro-Phe p-nitroanilide and monitored at 410 nm. […]
parameter: IC50

Consider the compound O=S(=O)(Cc1ccccc1)NCB(O)O and give its recorded IC50.
> 500 µM

----------
system_under_test: AmpC β-lactamase (Escherichia coli)
Construct: made in house
Sequence (P00811 20-377): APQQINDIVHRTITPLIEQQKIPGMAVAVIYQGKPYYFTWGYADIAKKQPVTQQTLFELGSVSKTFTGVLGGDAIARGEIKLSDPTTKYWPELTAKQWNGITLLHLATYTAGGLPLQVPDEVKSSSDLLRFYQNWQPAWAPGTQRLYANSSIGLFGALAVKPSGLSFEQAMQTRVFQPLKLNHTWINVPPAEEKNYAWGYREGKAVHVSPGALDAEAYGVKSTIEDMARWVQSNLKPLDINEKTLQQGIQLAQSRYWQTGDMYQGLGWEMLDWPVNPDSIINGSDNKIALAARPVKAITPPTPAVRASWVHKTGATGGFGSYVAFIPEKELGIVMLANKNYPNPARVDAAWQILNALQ
assay_details: biochemical
Assay type: biochemical
test_parameters: running text and FIG. 18; substrate CENTA 105 μM; read-out: Ki
parameter: Ki (nM)
Answers are plain numbers, in nM.

# return Ki of O=S(=O)(NCB(O)O)c1ccc(-c2nnn[nH]2)cc1C(F)(F)F [CR192] (system: AmpC β-lactamase (Escherichia coli))
0.05

----------
system_under_test: α-chymotrypsin (bovine pancreatic) (Bos taurus)
Construct: purchased Sigma-Aldrich
assay_details: α-Chymotrypsin inhibition
Format: biochemical
test_parameters: Table 4e; read-out: IC50 (Estimated from single concentration measurement)
For each of the compounds below, state its potency estimated from few doses.
Give bare numbers, in µM.

Would you please look over these solved cases?
compound: O=S(=O)(NCB(O)O)c1ccc(-c2nnn[nH]2)cc1 [CR157]
system_under_test: α-chymotrypsin (bovine pancreatic) (Bos taurus)
result_number: 900

compound: O=S(=O)(NCB(O)O)c1ccc(-c2nnn[nH]2)cc1C(F)(F)F [CR192]
system_under_test: α-chymotrypsin (bovine pancreatic) (Bos taurus)
result_number: 567

compound: O=S(=O)(NCB(O)O)c1ccc(-c2nn[nH]n2)c(Cl)c1 [CR191]
system_under_test: α-chymotrypsin (bovine pancreatic) (Bos taurus)
result_number: 567

compound: O=S(=O)(NCB(O)O)c1ccc(-c2nn[nH]n2)cc1Cl [CR190]
system_under_test: α-chymotrypsin (bovine pancreatic) (Bos taurus)
result_number: 567

compound: O=S(=O)(NCB(O)O)c1ccc(-c2nn[nH]n2)nc1 [CR161]
system_under_test: α-chymotrypsin (bovine pancreatic) (Bos taurus)
result_number: 900

# return recorded potency estimated from few doses for input O=C(O)c1cccc(CS(=O)(=O)NCB(O)O)c1 [CR167]
9900
